# Study system: MUTE_ACTLE162A_E163A (Arabidopsis thaliana, UniProt Q9M8K6, E162A/E163A)
# Construct: MUTE-ACTL (114-202); made in house; host or cells: E. coli BL21
# Sequence (Q9M8K6 114-202 E162A/E163A): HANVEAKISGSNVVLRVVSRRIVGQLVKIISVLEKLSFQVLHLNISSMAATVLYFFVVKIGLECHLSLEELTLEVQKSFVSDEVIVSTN
# Assay procedure: BLI direct binding
# Set-up: species or system A. thaliana
# Condition: BLI; MUTE_ACTL E162A_E163A; read-out: KD
Measurement label: Kd (µM)

[[record]]
compound = "O=C1C(c2ccccc2)=NC(NS(=O)(=O)c2ccccc2)(c2ccccc2)N1S(=O)(=O)c1ccccc1 (stereo not shown)"
measurement_label = "Kd"
result = 88.3


----------
Listed next: entries and their corresponding pKd.
# Study system: MUTE_ACTL (Arabidopsis thaliana, UniProt Q9M8K6)
# Construct: MUTE-ACTL (114-202); made in house; host or cells: E. coli BL21
# Sequence (Q9M8K6 114-202): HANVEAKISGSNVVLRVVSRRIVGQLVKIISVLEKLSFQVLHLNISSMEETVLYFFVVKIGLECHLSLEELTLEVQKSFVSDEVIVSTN
# Assay procedure: BLI direct binding
# Parameters: species or system A. thaliana
# Condition: BLI; MUTE_ACTL; read-out: KD
pKd: −log10 of the molar value.
Measurement label: pKd

[[record]]
compound = "O=C1C(c2ccccc2)=NC(NS(=O)(=O)c2ccccc2)(c2ccc(Br)cc2)N1S(=O)(=O)c1ccccc1 (stereo not drawn)"
result = 3.87

[[record]]
compound = "O=C1C(c2ccccc2)=NC(NS(=O)(=O)c2ccccc2)(c2ccccc2)N1S(=O)(=O)c1ccccc1 (stereo not drawn)"
result = 4.91

[[record]]
compound = "Cc1ccc(C2(NS(=O)(=O)c3ccccc3)N=C(c3ccccc3)C(=O)N2S(=O)(=O)c2ccccc2)cc1 (stereo not drawn)"
result = 3.91


Source of measurements: paper PMC11500415
